- method.summary: Ratio of quotient (binding IC50)/(activation EC50 for the poly (U) assay)
value.type: Rn

query.smiles | value.type | recorded.value
Cc1nc(N)c2ncn([C@@H]3O[C@H](COP(=O)(O)O[C@@H]4[C@H](O)[C@@H](COP(=O)(O)O[C@@H]5[C@H](O)[C@@H](COP(=O)(O)OP(=O)(O)OP(=O)(O)O)O[C@H]5n5cnc6c(N)nc(C)nc65)O[C@H]4n4cnc5c(N)nc(C)nc54)[C@@H](O)[C@H]3O)c2n1 | Rn | 0.5

1 = Cc1nc(N)c2ncn([C@@H]3O[C@H](COP(=O)(O)O[C@@H]4[C@H](O)[C@@H](COP(=O)(O)O[C@@H]5[C@H](O)[C@@H](COP(=O)(O)O)O[C@H]5n5cnc6c(N)ncnc65)O[C@H]4n4cnc5c(N)ncnc54)[C@@H](O)[C@H]3O)c2n1
2 = Cc1nc(N)c2ncn([C@@H]3O[C@H](COP(=O)(O)O)[C@@H](O)[C@H]3OP(=O)(O)OC[C@H]3O[C@@H](n4cnc5c(N)ncnc54)[C@H](OP(=O)(O)OC[C@H]4O[C@@H](n5cnc6c(N)ncnc65)[C@H](O)[C@@H]4O)[C@@H]3O)c2n1
Query: Field: lower Rn | Options: 1 / 2 Choose, then provide that item's label.
Reply: 1
